# System: 633275-114-R-J1-PDC complex spheroids, viability
# assay: Anticancer human tumor 633275-114-R-J1-PDC patient-derived endometrial adenocarcinoma cell line growth inhibition [GQUAD]
# conditionInfo: second compound 1 µM; first compound 3.16 µM; stronger effect = lower value
Quick rule for you: viability, T/C under 90% gets Fulfilled, anything else gets Not fulfilled.

C#Cc1c(F)ccc2cc(O)cc(-c3ncc4c(N5CC6CCC(C5)N6)nc(OCC56CCCN5CC(F)C6)nc4c3F)c12 (stereo unspecified) + Cc1cnc(CNC(=O)c2c(=O)c3ccc(N4CCCN(C)CC4)nc3n3c2sc2ccccc23)cn1 = Fulfilled
Cc1cccc(N(C)C(=O)C2C(O)CCN2c2nc(C)cc(C(F)(F)F)c2C#N)c1 (stereo unspecified) + CN(C)c1ccc(Nc2c3ccc(NC(=O)CCN4CCCC4)cc3nc3cc(NC(=O)CCN4CCCC4)ccc23)cc1 = Not fulfilled
COc1ncnc(C2CC2)c1-c1ncc2cnn(Cc3ccc(-c4nc(C(F)(F)F)cn4C(C)C)cc3)c2n1 + Cc1[nH]c2ccc(F)cc2c1-c1nc2c3cccnc3c3ncccc3c2[nH]1 = Not fulfilled
O=c1[nH]cc(F)c(=O)[nH]1 + Cc1[nH]c2ccc(F)cc2c1-c1nc2c3cccnc3c3ncccc3c2[nH]1 = Fulfilled
CC(C)n1c(=O)n(C)c2cnc3cc(F)c(-c4ccc(OCCCN5CCCCC5)nc4)cc3c21 + Cc1[nH]c2ccc(F)cc2c1-c1nc2c3cccnc3c3ncccc3c2[nH]1 = Not fulfilled
O=C(NO)c1cnc(N2CCN(S(=O)(=O)c3ccc4ccccc4c3)CC2)nc1 + CN(C)c1ccc(Nc2c3ccc(NC(=O)CCN4CCCC4)cc3nc3cc(NC(=O)CCN4CCCC4)ccc23)cc1 = Fulfilled
COc1cccc2c1C(=O)c1c(O)c3c(c(O)c1C2=O)CC(O)(C(=O)CO)CC3OC1CC(N)C(O)C(C)O1 (stereo unspecified) + Cc1[nH]c2ccc(F)cc2c1-c1nc2c3cccnc3c3ncccc3c2[nH]1 = Fulfilled
COc1ncnc(C2CC2)c1-c1ncc2cnn(Cc3ccc(-c4nc(C(F)(F)F)cn4C(C)C)cc3)c2n1 + Cc1cnc(CNC(=O)c2c(=O)c3ccc(N4CCCN(C)CC4)nc3n3c2sc2ccccc23)cn1 = Fulfilled

[in] Dear reviewer, please state whether Cc1cccc(N(C)C(=O)C2C(O)CCN2c2nc(C)cc(C(F)(F)F)c2C#N)c1 (stereo unspecified) + Cc1cnc(CNC(=O)c2c(=O)c3ccc(N4CCCN(C)CC4)nc3n3c2sc2ccccc23)cn1 has viability, T/C strictly beneath 90%.
[out] Fulfilled

[in] Dear reviewer, please state whether CC(C)(O)C1CCC(Nc2ccc3ncc(-c4cccc(C(F)(F)F)c4)n3n2)CC1 (stereo unspecified) + Cc1[nH]c2ccc(F)cc2c1-c1nc2c3cccnc3c3ncccc3c2[nH]1 has viability, T/C strictly beneath 90%.
[out] Fulfilled

====

# Tested on: 633275-114-R-J1-PDC complex spheroids, viability
# assay: Anticancer human tumor 633275-114-R-J1-PDC cell line growth inhibition [GQUAD];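 further: spheroids exposed to the agents for seven days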
# conditionInfo: curve of first compound; second compound 1 µM
experimentalEndpoint: IC50

Take a look at these entries with their results.
Cn1ncnc1[C@H]1c2n[nH]c(=O)c3cc(F)cc(c23)N[C@@H]1c1ccc(F)cc1 + CN(C)c1ccc(Nc2c3ccc(NC(=O)CCN4CCCC4)cc3nc3cc(NC(=O)CCN4CCCC4)ccc23)cc1 = > 316 nM
COc1cccc2c1C(=O)c1c(O)c3c(c(O)c1C2=O)CC(O)(C(=O)CO)CC3OC1CC(N)C(O)C(C)O1 (stereo unspecified) + Cc1cnc(CNC(=O)c2c(=O)c3ccc(N4CCCN(C)CC4)nc3n3c2sc2ccccc23)cn1 = < 31.6 nM
CCc1c2c(nc3ccc(O)cc13)-c1cc3c(c(=O)n1C2)COC(=O)[C@]3(O)CC + Cc1cnc(CNC(=O)c2c(=O)c3ccc(N4CCCN(C)CC4)nc3n3c2sc2ccccc23)cn1 = < 0.999 nM

I have 5 molecules here; please give me IC50 for each one.
1. CC1COCCN1c1cc(C2(S(C)(=N)=O)CC2)nc(-c2ccnc3[nH]ccc23)n1 (stereo unspecified) + CN(C)c1ccc(Nc2c3ccc(NC(=O)CCN4CCCC4)cc3nc3cc(NC(=O)CCN4CCCC4)ccc23)cc1
2. CC(C)(O)C1CCC(Nc2ccc3ncc(-c4cccc(C(F)(F)F)c4)n3n2)CC1 (stereo unspecified) + Cc1cnc(CNC(=O)c2c(=O)c3ccc(N4CCCN(C)CC4)nc3n3c2sc2ccccc23)cn1
3. Cc1[nH]c2ccccc2c1CCNCc1ccc(/C=C/C(=O)NO)cc1 + Cc1cnc(CNC(=O)c2c(=O)c3ccc(N4CCCN(C)CC4)nc3n3c2sc2ccccc23)cn1
4. COc1ccc([C@@H](O)c2cc(-c3ncnc4cc(N5CCOCC5)ccc34)c(F)cc2Cl)nn1 + Cc1[nH]c2ccc(F)cc2c1-c1nc2c3cccnc3c3ncccc3c2[nH]1
5. C=CCn1c(=O)c2cnc(Nc3ccc(N4CCN(C)CC4)cc3)nc2n1-c1cccc(C(C)(C)O)n1 + Cc1cnc(CNC(=O)c2c(=O)c3ccc(N4CCCN(C)CC4)nc3n3c2sc2ccccc23)cn1

[out]
1: 2780 nM; 2: < 31.6 nM; 3: < 0.999 nM; 4: 3150 nM; 5: < 31.6 nM

I have 2 molecules here; please give me IC50 for each one.
1. Cc1[nH]c2ccccc2c1CCNCc1ccc(/C=C/C(=O)NO)cc1 + CN(C)c1ccc(Nc2c3ccc(NC(=O)CCN4CCCC4)cc3nc3cc(NC(=O)CCN4CCCC4)ccc23)cc1
2. O=c1[nH]cc(F)c(=O)[nH]1 + CN(C)c1ccc(Nc2c3ccc(NC(=O)CCN4CCCC4)cc3nc3cc(NC(=O)CCN4CCCC4)ccc23)cc1

[out]
["48 nM", "> 10000 nM"]

[in] GET /values?readout=IC50&item= Cc1[nH]c2ccccc2c1CCNCc1ccc(/C=C/C(=O)NO)cc1 + Cc1[nH]c2ccc(F)cc2c1-c1nc2c3cccnc3c3ncccc3c2[nH]1
[out] 54.6 nM

// provenance: PubChem BioAssay AID2060505
